Give measured fold induction at 8 µM for each item. Keep answers brief.
System: T-cell
method-description: IL-2 secretion from T-cells stimulated with anti-CD3 antibody alone (Biological Example 2)
Format: cell-based
protocol-conditions: 8 μM compound, primary human total T-cells, read-out: IL-2 secretion, Anti-CD3 stimulation, fold change over baseline

Summary for this compound, `C[C@H](Cc1nncn1C)c1cccc(N2Cc3c(cc(CN4CC[C@@H](F)C4)cc3C(F)(F)F)C2=O)c1` : fold induction at 8 µM is > 0.201

In plain terms, `Cn1cnnc1C(F)(F)[C@](C)(F)c1cccc(N2Cc3c(cc(CN4CC(F)C4)cc3C(F)(F)F)C2=O)c1` has a documented fold induction at 8 µM of > 0.201

fold induction at 8 µM for `Cn1cnnc1C(F)(F)[C@](C)(F)c1cccc(N2Cc3c(cc(CN4CC[C@@H](F)C4)cc3C(F)(F)F)C2=O)c1` is > 0.201

Documented fold induction at 8 µM of Cn1cnnc1[C@@H](F)[C@](C)(F)c1cccc(N2Cc3c(cc(C4CC4)cc3C(F)(F)F)C2=O)c1 (stereo in doubt) : 0.051 to 0.1
